Test system: carrageenan-induced paw edema in rats
Experiment: Anti-inflammatory activity, carrageenan-induced paw edema test
Assay type: in vivo
Conditions: 20 mg/kg oral, 2 h after carrageenan, mean ± SD (n = 6)
Collected Percent anti-inflammatory activity (percent inhibition of paw edema) values appear next to each entry.

> print(dat)
                                   compound   data.value
1  O=C1Nc2ccc(F)cc2C1=Nc1ccc(N=Cc2ccc(O)cc2)cc1 [Compound N10]  58 ± 1.16 %
2  O=C1Nc2ccc(F)cc2C1=Nc1ccc(N=Cc2ccccc2)cc1 [Compound N6]  59 ± 1.93 %
3  CCC(CC)=Nc1ccc(N=C2C(=O)Nc3ccc(F)cc32)cc1 [Compound N2]  62 ± 1.26 %

[Q] Which measured Percent anti-inflammatory activity (percent inhibition of paw edema) value corresponds to CC(=Nc1ccc(N=C2C(=O)Nc3ccc(F)cc32)cc1)c1ccccc1 [Compound N5] ?
[A] 59 ± 1.36 %

[Q] Which measured Percent anti-inflammatory activity (percent inhibition of paw edema) value corresponds to O=C1Nc2ccc(F)cc2C1=Nc1ccc(N=Cc2ccc([N+](=O)[O-])cc2)cc1 [Compound N8] ?
[A] 56 ± 1.16 %

[Q] Which measured Percent anti-inflammatory activity (percent inhibition of paw edema) value corresponds to O=C1Nc2ccc(F)cc2C1=Nc1ccc(N=Cc2ccc(Cl)cc2)cc1 [Compound N9] ?
[A] 57 ± 1.18 %
